Biological target: human prostanoid EP1 receptor (Homo sapiens, UniProt P34995)
Construct: expressed in transfected cells
Sequence (P34995 1-402): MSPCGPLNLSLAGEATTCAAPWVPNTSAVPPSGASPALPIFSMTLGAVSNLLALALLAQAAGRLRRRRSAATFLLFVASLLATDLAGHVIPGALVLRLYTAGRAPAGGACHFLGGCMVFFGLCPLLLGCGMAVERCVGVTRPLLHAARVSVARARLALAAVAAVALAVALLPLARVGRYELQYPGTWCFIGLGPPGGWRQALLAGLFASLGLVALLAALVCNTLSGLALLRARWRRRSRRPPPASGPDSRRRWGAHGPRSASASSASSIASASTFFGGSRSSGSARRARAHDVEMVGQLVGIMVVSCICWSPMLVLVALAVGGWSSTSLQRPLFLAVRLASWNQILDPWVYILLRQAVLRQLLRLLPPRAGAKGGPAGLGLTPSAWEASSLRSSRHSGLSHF
Experiment: FLIPR Ca2+ signaling antagonist assay, EP1 receptor stable cell line
Type: cell-based
Conditions: HEK-293 EBNA stable cell line; standard agonist PGE2; NA = inactive (no antagonism or Kb 10,000 nM); PAg, Ag not defined
RECORDED_METRIC: Kb (nM)

INSERT INTO results (compound, recorded_metric, units_of_measure, value) VALUES
  ('COc1ccc(OCC2CC2)c(Cn2nc(CCC(=O)O)cc2C)c1', 'Kb', 'nM', 560),
  ('Cc1cc(CCC(=O)NS(=O)(=O)C(F)(F)F)nn1Cc1cc(Cl)ccc1OCC1CCCC1', 'Kb', 'nM', 6),
  ('CCC(CC)COc1ccc(Br)cc1Cn1nc(CCC(=O)O)cc1C(C)C', 'Kb', 'nM', 60),
  ('Cc1cc(CCC(=O)O)nn1Cc1cc(OC(F)(F)F)ccc1OCC1CCCC1', 'Kb', 'nM', 35),
  ('Cc1cc(CCC(=O)O)nn1Cc1cc(Br)ccc1OCC1(C(F)(F)F)CCCC1', 'Kb', 'nM', 180),
  ('Cc1cc(CCC(=O)O)nn1Cc1cc(Br)ccc1OCC1CCC1', 'Kb', 'nM', 30);

I. CCC(CC)COc1ccc(C(F)(F)F)cc1Cn1nc(CCC(=O)O)cc1C
II. Cc1cc(CCC(=O)NS(=O)(=O)C(F)(F)F)nn1Cc1cc(Br)ccc1OCC(C)C
Problem: From the recorded data, which exceeds the other in Kb: I or II ? Response format: the label of the selected entry.
Result: I

P. CCC(CC)COc1ccc(C(C)(C)C)cc1Cn1nc(CCC(=O)O)cc1C
Q. C/C=C(\C)COc1ccc(Br)cc1Cn1nc(CCC(=O)O)cc1C
Problem: Which value of Kb is numerically greater: that of P or that of Q ? Returns: label corresponding to the selected item.
Result: P
(P: 40 nM, Q: 11 nM)

A. Cc1cc(CCC(=O)O)nn1Cc1cc(Cl)ccc1C#CCC(C)C
B. COc1ccc(COc2ccc(Cl)cc2Cn2nc(CCC(=O)O)cc2C)cc1
C. Cc1cc(CCC(=O)O)nn1Cc1cc(Cl)ccc1OC(CC(C)C)CC(C)C
D. Cc1cc(CCC(=O)NS(=O)(=O)C(F)(F)F)nn1Cc1cc(Cl)ccc1CCC1CCCC1
E. Cc1cc(CCC(=O)O)nn1Cc1cc(Cl)ccc1C#CC1CCCC1
Problem: Rank items: key Kb, increasing. Write out the labels following the order that was asked for.
Result: E, D, A, B, C
(E: 6 nM, D: 60 nM, A: 200 nM, B: 300 nM, C: 1500 nM)

P. CCC(CC)COc1ccc(C)cc1Cn1nc(CCC(=O)O)cc1C
Q. Cc1cc(CCC(=O)O)nn1Cc1cc(Cl)ccc1OCC(C)(C)C
Problem: I need your help: which of the pair P , Q has higher Kb? Could you answer with the label of the item you picked?
Result: P

====

biological target: human prostanoid TP receptor (Homo sapiens); construct: expressed in transfected cells; experiment: FLIPR Ca2+ signaling antagonist assay, TP receptor stable cell line; format: cell-based; details: HEK-293 EBNA stable cell line; standard agonist U-46619; NA = inactive (no antagonism or Kb 10,000 nM); PAg, Ag not defined
Sequence (P21731 whole entry): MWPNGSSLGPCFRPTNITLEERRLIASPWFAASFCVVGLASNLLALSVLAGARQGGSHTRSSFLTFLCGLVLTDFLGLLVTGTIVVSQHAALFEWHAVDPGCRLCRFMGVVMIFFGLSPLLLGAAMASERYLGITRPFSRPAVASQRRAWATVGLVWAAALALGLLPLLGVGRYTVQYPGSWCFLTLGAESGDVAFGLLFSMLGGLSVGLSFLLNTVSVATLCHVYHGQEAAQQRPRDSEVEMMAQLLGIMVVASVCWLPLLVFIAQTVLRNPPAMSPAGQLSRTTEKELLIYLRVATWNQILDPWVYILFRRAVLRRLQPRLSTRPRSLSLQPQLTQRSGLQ
RECORDED_METRIC: Kb (nM)

Here's what some known entries look like.
INSERT INTO measurements (molecule, value) VALUES
  ('CCC(CC)COc1ccc(Cl)cc1Cn1nc(CC(C)C(=O)O)cc1C (racemic) [Example 68]', 16),
  ('CCC(CC)COc1ccc(C)cc1Cn1nc(CCC(=O)O)cc1C [Example 65]', 10),
  ('COc1ccc(OCC2CCCC2)c(Cn2nc(CCC(=O)O)cc2C)c1 [Example 53]', 700),
  ('COc1ccc(COc2ccc(Cl)cc2Cn2nc(CCC(=O)O)cc2C)cc1 [Example 31]', 9),
  ('CCC(CC)COc1ccc(C(N)=O)cc1Cn1nc(CCC(=O)O)cc1C [Example 61]', 1100);

1. Cc1cc(CCC(=O)O)nn1Cc1cc(Cl)ccc1OCC1(C(F)(F)F)CCCC1 [Example 37]
2. COc1ccc(OCC2CC2)c(Cn2nc(CCC(=O)O)cc2C)c1 [Example 54]
Problem: Which record shows the lower Kb: the first, 1 , or the second, 2 ? Output the label that corresponds to your choice.
Result: 1
(1: 160 nM, 2: 1200 nM)

1. CCC(CC)COc1ccccc1Cn1nc(CC(C)C(=O)O)cc1C (racemic) [Example 69]
2. Cc1cc(CCC(=O)O)nn1Cc1cc(Cl)ccc1OCC(C)C [Example 42]
Problem: Sorting ascending by Kb, which comes first: 1 or 2 ? # answer = label of selected item
Result: 2
(2: 40 nM, 1: 300 nM)

====

Molecular target: human prostanoid FP receptor (Homo sapiens)
Construct: expressed in transfected cells
Sequence (P43088 whole entry): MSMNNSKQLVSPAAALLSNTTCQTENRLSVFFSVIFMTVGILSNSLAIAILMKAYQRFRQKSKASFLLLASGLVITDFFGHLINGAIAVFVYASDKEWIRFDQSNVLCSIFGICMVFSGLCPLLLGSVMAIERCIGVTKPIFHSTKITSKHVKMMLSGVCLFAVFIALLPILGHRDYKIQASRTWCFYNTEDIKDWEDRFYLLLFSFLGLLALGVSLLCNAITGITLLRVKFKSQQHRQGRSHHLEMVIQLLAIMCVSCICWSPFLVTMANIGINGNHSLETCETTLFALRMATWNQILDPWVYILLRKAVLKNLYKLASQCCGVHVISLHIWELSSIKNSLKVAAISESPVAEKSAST
Assay: FLIPR Ca2+ signaling antagonist assay, FP receptor stable cell line
Assay type: cell-based
Conditions: HEK-293 EBNA stable cell line; standard agonist 17-phenyl-PGF2α; NA = inactive (no antagonism or Kb 10,000 nM); PAg, Ag not defined
Protocol: The above compounds were tested for PG antagonist activity as follows using human recombinant prostanoid receptor (DP1, EP1-4, FP, IP and TP) stable cell lines: […] Ca^2+ signaling studies were performed using a FLIPR TETRA system (Molecular Devices, Sunnyvale, Calif., USA) in the 384-format. […] Cells were excited with LED (light emitting diode) excitation at 470-495 nm and emission was measured through an emission filter at 515-575 nm. Assay plates were read for 3.5 minutes using the FLIPR^TETRA. […]
RECORDED_METRIC: Kb (nM)

Answered cases to consult:
INSERT INTO assay_data (smiles_str, recorded_metric, value) VALUES
  ('Cc1cc(CCC(=O)O)nn1Cc1cc(Cl)ccc1C#CCC(C)C', 'Kb', 160),
  ('Cc1cc(CCC(=O)O)nn1Cc1cc(Cl)ccc1OCC(C)(C)C', 'Kb', 110),
  ('Cc1cc(CCC(=O)NS(=O)(=O)CC(F)(F)F)nn1Cc1cc(Cl)ccc1OCc1ccc(Cl)cc1', 'Kb', 400),
  ('Cc1cc(CCC(=O)O)nn1Cc1cc(Cl)ccc1CCC1CCCC1', 'Kb', 3500),
  ('CCC(CC)COc1ccc(C)cc1Cn1nc(CCC(=O)O)cc1C', 'Kb', 1300),
  ('CCC(CC)COc1ccc(Br)cc1Cn1nc(CCC(=O)O)cc1C(C)(C)C', 'Kb', 500);

a. CCC(C)(CC)COc1ccc(Br)cc1Cn1nc(CCC(=O)O)cc1C
b. CCC(CC)COc1ccc(-c2ccccc2)cc1Cn1nc(CCC(=O)O)cc1C
Problem: Hey, which is lower on measured Kb, a or b ? Label of pick, please.
Result: b
(b: 60 nM, a: 110 nM)

====

molecular target: human prostanoid EP4 receptor (Homo sapiens); construct: expressed in transfected cells; test: FLIPR Ca2+ signaling antagonist assay, EP4 receptor stable cell line; format: cell-based; conditions: HEK-293 EBNA stable cell line; standard agonist PGE2; NA = inactive (no antagonism or Kb 10,000 nM); PAg, Ag not defined
Sequence (P35408 whole entry): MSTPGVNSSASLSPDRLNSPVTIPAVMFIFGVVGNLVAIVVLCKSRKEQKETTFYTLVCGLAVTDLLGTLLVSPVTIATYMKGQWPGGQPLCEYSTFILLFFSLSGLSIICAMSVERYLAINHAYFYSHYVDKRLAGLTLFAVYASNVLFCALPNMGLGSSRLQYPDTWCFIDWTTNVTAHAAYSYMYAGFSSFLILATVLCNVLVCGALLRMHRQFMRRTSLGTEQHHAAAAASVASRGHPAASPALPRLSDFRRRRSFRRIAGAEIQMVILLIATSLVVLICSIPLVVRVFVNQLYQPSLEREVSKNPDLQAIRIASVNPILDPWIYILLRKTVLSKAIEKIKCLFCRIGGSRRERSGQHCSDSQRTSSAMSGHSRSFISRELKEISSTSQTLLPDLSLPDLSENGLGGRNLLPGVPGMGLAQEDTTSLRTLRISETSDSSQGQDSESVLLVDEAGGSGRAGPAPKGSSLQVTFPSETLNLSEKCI
RECORDED_METRIC: Kb (nM)

Check out these entries, answers already filled in.
INSERT INTO assay_data (compound, units_of_measure, value) VALUES
  ('Cc1cc(CCC(=O)O)nn1Cc1cc(Br)ccc1OCC1(C(F)(F)F)CCC1', 'nM', 1000),
  ('Cc1cc(CCC(=O)NS(=O)(=O)C(F)(F)F)nn1Cc1cc(Cl)ccc1OCC(C)C', 'nM', 500),
  ('CCC(CC)COc1ccc(Br)cc1Cn1nc(CC(C)C(=O)O)cc1C (stereo not drawn)', 'nM', 70),
  ('CCC(CC)COc1ccc(C(F)(F)F)cc1Cn1nc(CCC(=O)O)cc1C', 'nM', 170),
  ('Cc1cc(CCC(=O)O)nn1Cc1cc(Cl)ccc1OCC(C)(C)C', 'nM', 500);

1. Cc1cc(CCC(=O)O)nn1Cc1cc(Br)ccc1OCC1CCC1
2. Cc1cc(CCC(=O)O)nn1Cc1cc(OC(F)(F)F)ccc1OCc1ccc(Cl)cc1
Problem: Short answer wanted: higher Kb, 1 or 2 ? Answer with the label corresponding to your selection.
Result: 2
(2: 7000 nM, 1: 500 nM)

A. CCC(C)CCOc1ccc(Br)cc1Cn1nc(CCC(=O)O)cc1C (stereo not drawn)
B. CCC(C)COc1ccc(Br)cc1Cn1nc(CCC(=O)O)cc1C (stereo not drawn)
Problem: Between A and B , which one shows the smaller Kb number? The response must carry the label of the picked entry.
Result: B
(B: 100 nM, A: 600 nM)

P. Cc1cc(CCC(=O)O)nn1Cc1cc(Cl)ccc1OCCC(C)C
Q. Cc1cc(CCC(=O)NS(=O)(=O)C(F)(F)F)nn1Cc1cc(Br)ccc1OCC(C)C
R. CCC(CC)COc1ccc(Br)cc1Cn1nc(CCC(=O)O)cc1C(C)C
S. COc1ccc(COc2ccc(Cl)cc2Cn2nc(CCC(=O)O)cc2C)cc1
Problem: Arrange the 4 compounds by rising Kb, starting with the smallest. Give the labels in the order requested.
Result: Q, R, P, S

I. Cc1cc(CCC(=O)O)nn1Cc1cc(Cl)ccc1C#CCC(C)C
II. CCC(CC)COc1ccc(Br)cc1Cn1nc(CCC(=O)NS(=O)(=O)C(F)(F)F)cc1C
III. CCCC(C)COc1ccc(Br)cc1Cn1nc(CCC(=O)O)cc1C (stereo not drawn)
Problem: Ranking field: Kb; order: falling. To answer, arrange all of the labels according to the requested order.
Result: I, III, II
